System: HCC-2998 colon
measurement protocol: NCI-60 one-dose screen, 48 h
applied conditions: 10 µM unless noted
This is part of a sample that, as a whole, favours compounds with a hit. Of some 83,000 tested, about 20% had one in any assay. Calls of active or inactive are those of the source. The calls were made as follows: active = growth percent below 10; inactive = the rest.
Please reply with one of these outcomes: active, inactive

What classification did Cc1cc(N2CCOCC2)nc(N[C@@H]2CCC[C@H](Nc3ccnc4cc(Cl)ccc34)C2)n1 end up with in this test?
inactive

Then what about the compound O=C1OCC2=C1C(c1ccncc1)c1cc3c(cc1N2CCO)OCO3 (stereo not given) ?
inactive

Another compound to look at: COC(=O)c1ccc2oc(NC(=O)c3ccc(Nc4ccc([N+](=O)[O-])cc4C)c([N+](=O)[O-])c3)nc2c1
inactive

Also, CCN(CC)c1ccc(-c2cc(-c3cc(OC)c(OC)c(OC)c3)nc(N3CCOCC3)c2C#N)cc1 please.
inactive

Cool, now COc1cc(-c2ccc3c(c2)NC(=O)/C3=C\c2ccc[nH]2)ccc1O
active

----------
Listed here: items and their measured growth.
System: BT-549 breast
measurement protocol: NCI-60 one-dose screen, 48 h (100 = growth as untreated, 0 = no growth, -100 = all killed)
applied conditions: 10 µM unless noted
The panel holds about 83,000 compounds, 20% with a hit somewhere; the sample as a whole holds those more often. Activity calls are given as the source filed them. How the source made its calls: active means growth percent below 10; inactive means the rest.

COc1cc(-c2nn(-c3ccc(C(=O)O)cc3)cc2C(=O)O)ccc1O
70.3% (inactive)
O=S(=O)(Nc1ccc(Br)c(Cl)c1)c1ccc(-c2cnc(C3CC3)o2)cc1
38.3% (inactive)
O=C1/C(=C/c2ccccc2)SC(=S)N1CCc1ccc(O)cc1
106% (inactive)

Entry O=C(CCCCC(=O)N/N=C\c1ccccc1O)N/N=C\c1ccccc1O : reported growth = ?
38.4% (inactive)

Queued: COc1ccc(Nc2nc(SC)nc(-c3cccc([N+](=O)[O-])c3)c2C#N)cc1
86.9% (inactive)

And for C#Cc1cccc(NC(=O)c2ccccc2NC(=O)C=C)c1 ?
102% [8.25 µM] (inactive)

----------
Test system: SF-268 CNS
measurement protocol: NCI-60 one-dose screen, 48 h
applied conditions: 10 µM unless noted
This is part of a sample that, as a whole, favours compounds with a hit. Of some 83,000 tested, about 20% had one in any assay. Active and inactive are the calls of the source. How the source made its calls: active means growth percent below 10; inactive means the rest.
Returns: one label drawn from active, inactive

Below are worked cases with known answers.
CCn1c(Cc2ccccc2Nc2c(Cl)cccc2Cl)nnc1SCC(=O)NN1C(=O)/C(=C/c2cc(OC)c(O)c(OC)c2)SC1=S
inactive
C=C(C)C(=O)Nc1ccc(NC(C)C)cc1
inactive
CCC([N+](=O)[O-])S(=O)(=O)c1ccc(C)cc1 (stereo not drawn)
inactive

Please share the test call associated with CC(=O)OCCC/C(=C/c1cc2ccccc2c2ccccc12)[N+](=O)[O-] .
active

Moving on to NC(=NCCCOc1ccc(Cl)cc1)Nc1ccc(Cl)cc1
inactive

Follow-up item: COc1cc(-c2nc3ccccc3[nH]2)ccc1OCC(=O)N=Nc1c(O)[nH]c2ccc(Cl)cc12
active

Input CC[C@H]1OC(=O)[C@H](C)[C@@H](O[C@H]2C[C@@](C)(OC)[C@@H](O)[C@H](C)O2)[C@H](C)[C@@H](O[C@@H]2O[C@H](C)C[C@H](N(C)C)[C@H]2O)[C@](C)(O)C[C@H](C)CN(C)[C@H](C)[C@@H](O)[C@]1(C)O
inactive

Request: CC(=O)Oc1ccc(Cl)cc1CN(C(C)=O)C1CCCCC1
inactive
